Entry source: patent US10810329B2

# Test system: Escherichia coli strain (ATCC 25922)
# Type: cell-based
Peptide text beside a SMILES is read from it.
measuredParameter: MIC in LYM medium, NaCl 50 (µg/mL)
Entry rule: numbers only, all in µg/mL.

stdin: // returns reported MIC in LYM medium, NaCl 50 for input CC(C)C[C@H](NC(=O)[C@H](Cc1c[nH]c2ccccc12)NC(=O)[C@H](CCCCN)NC(=O)[C@H](CC(C)C)NC(=O)[C@H](Cc1c[nH]c2ccccc12)NC(=O)[C@H](CCCCN)NC(=O)[C@@H](N)CC(C)C)C(=O)N[C@@H](CCCCN)C(=O)N[C@@H](CCCCN)C(=O)N[C@@H](CCCCN)C(=O)N[C@@H](CCCCN)C(=O)N[C@@H](CCCCN)C(=O)N[C@@H](Cc1c[nH]c2ccccc12)C(=O)O [SEQ ID NO. 4, LKWLKWLKKKKKW] (H-LKWLKWLKKKKKW-OH; N-terminus and C-terminus assumed)
stdout: 3.13
